Molecular target: T1, P6-AA-1HAA-D
T1 chain: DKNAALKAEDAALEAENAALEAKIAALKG
Test: two-hybrid library CCmax;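 further: natural log of median RNA to DNA barcode read ratio; higher means stronger binding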
Settings: mean of both orientations
Recorded Metric: interaction score

Answered examples (3):
Binder	interaction score
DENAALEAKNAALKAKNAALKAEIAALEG [P5-AA-1HAA-N]	-0.622
DENAALEAKEAALKAKNAALKAEIAALEG [P5-AA-1HAA-E]	-1.78
DENAALEAKAAALKAKNAALKAEIAALEG [P5-AA-1HAA-A]	-1.94

P. DENAALEAKVAALKAKNAALKAEIAALEG [P5-AA-1HAA-V]
Q. DENAALEAKTAALKAKNAALKAEIAALEG [P5-AA-1HAA-T]
R. DENAALEAKSAALKAKNAALKAEIAALEG [P5-AA-1HAA-S]
S. DENAALEAKYAALKAKNAALKAEIAALEG [P5-AA-1HAA-Y]
Sort these binders on interaction score so the largest reading comes first. Please list the labels according to the requested order. P, Q, S, R
(P: 0.818, Q: -0.594, S: -0.899, R: -1.74)
